src = paper PMC9090415

Target: P. falciparum apicoplast DNA polymerase (Pf-apPOL) (Plasmodium falciparum, UniProt Q8ILY1)
Sequence (Q8ILY1 entry or part of it): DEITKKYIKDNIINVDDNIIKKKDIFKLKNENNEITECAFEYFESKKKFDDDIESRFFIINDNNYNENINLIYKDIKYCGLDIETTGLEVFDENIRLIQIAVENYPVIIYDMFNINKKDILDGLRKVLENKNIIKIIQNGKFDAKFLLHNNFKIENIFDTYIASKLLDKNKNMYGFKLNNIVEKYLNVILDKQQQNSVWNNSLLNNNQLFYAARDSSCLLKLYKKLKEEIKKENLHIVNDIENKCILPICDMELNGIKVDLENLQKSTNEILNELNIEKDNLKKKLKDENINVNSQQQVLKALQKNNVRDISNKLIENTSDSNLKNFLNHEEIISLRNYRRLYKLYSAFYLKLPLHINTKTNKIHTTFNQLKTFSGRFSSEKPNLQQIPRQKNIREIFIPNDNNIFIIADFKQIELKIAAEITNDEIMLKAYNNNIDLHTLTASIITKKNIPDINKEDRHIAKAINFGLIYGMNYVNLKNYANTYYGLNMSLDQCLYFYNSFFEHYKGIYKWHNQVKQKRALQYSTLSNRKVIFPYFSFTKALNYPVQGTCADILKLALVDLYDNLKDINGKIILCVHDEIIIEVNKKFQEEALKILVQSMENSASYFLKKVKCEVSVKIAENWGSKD
Assay: Fluorescence-based high-throughput DNA polymerase assay (molecular beacon), primary screen and dose-response
Format: biochemical
Conditions: DRC-2; 5'; concentration 40
reported.metric: % inhibition Apo pol 5' (%)
Numbers only, in %.

Cc1ccc(CCNC(=O)c2cnn3c(O)c(Cc4ccccc4F)c(C)nc23)cc1	57
O=C(O)c1cccc(N2N=C(C(F)(F)F)/C(=C/c3ccc(-c4ccccc4[N+](=O)[O-])o3)C2=O)c1	63
OC(C#Cc1ccccc1)c1ccco1 (stereo not shown)	22
COc1ccc(C=C2Oc3c(ccc4c3CN(c3ccc5c(c3)OCO5)CO4)C2=O)cc1OC	42
CCCCSc1nnc2c(n1)OC(c1ccc([N+](=O)[O-])o1)Nc1ccccc1-2 (stereo not shown)	37

Provide % inhibition Apo pol 5' values for the following items, in order.
1. O=c1cc(CN2CCCCC2)c2cc3c(cc2o1)OCO3
2. CC(=O)Nc1cc(C(=O)NC(C)C)c2ccc(C)nc2c1
3. C=CC1=C(C)c2cc3[nH]c(cc4nc(cc5[nH]c(cc1n2)c(C)c5CCC(=O)O)C(CCC(=O)O)=C4C)c(C)c3C=C
4. CN(C)C1C(c2ccccc2)=C(c2ccccc2)SC(c2ccccc2)C1[N+](=O)[O-] (stereo not shown)
5. Oc1cccnc1/N=C/c1cc(I)cc(I)c1O
6. COc1ccc(C(=O)N2CCc3c(nc4cc(-c5ccccc5Cl)[nH]n4c3=O)C2)cn1

50
47
49
42
63
54

Hey, quick one: what's % inhibition Apo pol 5' for each of these?
1. Cc1cc(C)cc(-n2nc3c(c2NC(=O)c2ccco2)CSC3)c1
2. CCOc1ccc(/C=C2\N=C(c3cc([N+](=O)[O-])cc([N+](=O)[O-])c3)OC2=O)cc1
3. O=[N+]([O-])/C=C/c1ccc(-c2ccc(Br)cc2)o1
4. CCCCC(=O)N1CCc2c(nc3cc(-c4ccccc4Cl)[nH]n3c2=O)C1
5. COc1ccc(NC(=O)Cn2ccc3c(=O)[nH]ccc32)cc1 [Molecule 13, COc1ccc(cc1)NC(=O)Cn1ccc2c1cc[nH]c2=O]

54
61
18
46
45
